# DMS-153 TDCC EC50 (conditioned medium, human T cells) per record follows
- test target: human DLL3 on DMS-153 cells (human) (UniProt Q9NYJ7)
- Sequence (Q9NYJ7 27-618 limits assumed): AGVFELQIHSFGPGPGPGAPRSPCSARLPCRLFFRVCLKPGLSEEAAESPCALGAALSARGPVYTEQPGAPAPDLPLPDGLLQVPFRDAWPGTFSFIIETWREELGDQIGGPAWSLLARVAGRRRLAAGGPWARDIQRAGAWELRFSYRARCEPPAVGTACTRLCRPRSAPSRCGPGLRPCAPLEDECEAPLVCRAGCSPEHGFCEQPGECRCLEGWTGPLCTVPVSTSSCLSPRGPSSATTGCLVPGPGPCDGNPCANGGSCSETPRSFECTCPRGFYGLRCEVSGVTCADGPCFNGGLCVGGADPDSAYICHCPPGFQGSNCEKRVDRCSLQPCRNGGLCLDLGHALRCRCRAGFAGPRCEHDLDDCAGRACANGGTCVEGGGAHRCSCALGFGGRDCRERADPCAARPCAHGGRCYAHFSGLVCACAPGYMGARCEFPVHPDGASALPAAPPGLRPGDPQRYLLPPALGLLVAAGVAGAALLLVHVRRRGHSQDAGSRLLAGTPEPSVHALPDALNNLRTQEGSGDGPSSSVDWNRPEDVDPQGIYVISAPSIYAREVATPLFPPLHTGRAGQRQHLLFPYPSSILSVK
- assay protocol: cell-based or functional assay
I only need the number, in nM, no unit after it.

Examples from the recorded data:
INSERT INTO results (binder, readout_units, numeric_readout) VALUES
  ('anti-DLL3 trispecific protein, DLL3 binder 4H011 (protein, part only; not given: CD3 fragment and albumin sdAb, part only) chain, part: EVQLVESGGGLVQPGGSLTLSCAASGSSVSRLSMAWYRQAPGKKRELVAGISVDGSTDYIDSVKGRFTISRDNAKNSVYLQMNSLRAEDTAVYYCYAYRWTTRLTYWGQGTLVTVSSGGGGSGGGSGGGGSGGGSHHHHHH', 'nM', 0.036),
  ('anti-DLL3 trispecific protein, DLL3 binder 4B011 (protein, part only; not given: CD3 binder and albumin binder, part only) chain, part: EVQLVESGGGLVQPGGSLTLSCAASGSSVTFLSMAWYRQAPGKKRELVAGISADGSTVYIDSVKGRFTISRDNAKNSVYLQMNSLRAEDTAVYYCYAYRWTTRGTYWGQGTLVTVSSGGGGSGGGSGGGGSGGGSHHHHHH', 'nM', 0.048);

Q: Quick one: DMS-153 TDCC EC50 (conditioned medium, human T cells) of anti-DLL3 trispecific protein, DLL3 binder 1A011 (protein, part only; not given: anti-CD3 fragment and anti-albumin domain, part only) chain, part: EVQLVESGGGLVQPGGSLTLSCVASGSTSSINAIGWYRRAPGKQRELVAGISSDGSKVYIDSVKGRFTISRDNAKNSVYLQMNSLRAEDTAVYYCYYFRTVSGSSYRYWGQGTLVTVSSGGGGSGGGSGGGGSGGGSHHHHHH ?
Result: 0.051

Q: Find the recorded DMS-153 TDCC EC50 (conditioned medium, human T cells) belonging to anti-DLL3 trispecific protein, DLL3 binder 2F11 (protein, part only; not given: anti-CD3 and anti-albumin domains, part only) chain, part: EVQLVESGGGLVQPGGSLTLSCVASGSVSSINAMGWYRRAPGKQRELVAGISSDGSKVYKDSVKGRFTISRDNAKNSVYLQMNSLRAEDTAVYYCYYFRTVSGSSMGYWGQGTLVTVSSGGGGSGGGSGGGGSGGGSHHHHHH and report it.
Result: 0.049

Q: Query: DMS-153 TDCC EC50 (conditioned medium, human T cells); subject: anti-DLL3 trispecific protein, DLL3 binder 2E05 (protein, part only; not given: CD3 binder and albumin binder, part only) chain, part: EVQLVESGGGLVQPGGSLTLSCVASGSPSSINAYGWYRRAPGKQRELVAGISSDGSKVYSDSVKGRFTISRDNAKNSVYLQMNSLRAEDTAVYYCYYFRTVSGSSMSYWGQGTLVTVSSGGGGSGGGSGGGGSGGGSHHHHHH
Result: 0.033

Q: Requested field: DMS-153 TDCC EC50 (conditioned medium, human T cells). Item: anti-DLL3 trispecific protein, DLL3 binder 2E011 (protein, part only; not given: anti-CD3 fragment and anti-albumin sdAb, part only) chain, part: EVQLVESGGGLVQPGGSLTLSCVASGSTSSINAIGWYRRAPGKQRELVAGISSDGSSVYADSVKGRFTISRDNAKNSVYLQMNSLRAEDTAVYYCYYFRRVSGSSMRYWGQGTLVTVSSGGGGSGGGSGGGGSGGGSHHHHHH
Result: 0.19

Q: Which DMS-153 TDCC EC50 (conditioned medium, human T cells) is reported for this binder? anti-DLL3 trispecific protein, DLL3 binder 3H06 (protein, part only; not given: CD3 fragment and albumin sdAb, part only) chain, part: EVQLVESGGGLVQPGGSLTLSCAASGSSVSQLSMAWYRQAPGKKRELVAGISADGSTDYFDSVKGRFTISRDNAKNSVYLQMNSLRAEDTAVYYCYAYRWTTRGTYWGQGTLVTVSSGGGGSGGGSGGGGSGGGSHHHHHH
Result: 0.12
